Experiment: Stability in human T47D cells cultured in DMEM medium measured after 24 hrs by LC-MS/MS analysis
Assay type: ADME, cell-based
Details: read-out: Stability

>  <Substance Smiles>
Cc1ccccc1N(C)C(=O)c1ccc(-c2ccc(OS(N)(=O)=O)cc2)o1

>  <remaining at 24 h, %>
94

$$$$

###

Readings of half-life at 1 µM for the listed compounds
Assay: Metabolic stability in human liver S9 fraction assessed as half life at 1 uM in presence of NADPH measured upto 60 min by LC-MS/MS analysis
Type: ADME, subcellular
Assay Readout: half-life at 1 µM (min)

>  <Substance Smiles>
Cc1ccccc1N(C)C(=O)c1ccc(-c2ccc(OS(N)(=O)=O)c(Cl)c2)o1

>  <Unit Abbrev>
min

>  <Observed>
48

$$$$
>  <Substance Smiles>
Cc1ccccc1N(C)C(=O)c1ccc(-c2ccc(OS(N)(=O)=O)cc2F)o1

>  <Unit Abbrev>
min

>  <Observed>
51

$$$$
>  <Substance Smiles>
Cc1ccccc1N(C)C(=O)c1ccc(-c2ccc(OS(N)(=O)=O)cc2)o1

>  <Unit Abbrev>
min

>  <Observed>
47

$$$$
>  <Substance Smiles>
Cc1cc(F)ccc1N(C)C(=O)c1ccc(-c2ccc(OS(N)(=O)=O)cc2)o1

>  <Unit Abbrev>
min

>  <Observed>
44

$$$$
>  <Substance Smiles>
Cc1ccccc1N(C)C(=O)c1ccc(-c2ccc(OS(N)(=O)=O)c(F)c2)o1

>  <Unit Abbrev>
min

>  <Observed>
43

$$$$
>  <Substance Smiles>
Cc1ccccc1N(C)C(=O)c1csc(-c2ccc(OS(N)(=O)=O)cc2)n1

>  <Unit Abbrev>
min

>  <Observed>
50

$$$$
>  <Substance Smiles>
Cc1ccc(F)cc1N(C)C(=O)c1ccc(-c2ccc(OS(N)(=O)=O)cc2)o1

>  <Unit Abbrev>
min

>  <Observed>
34

$$$$
>  <Substance Smiles>
Cc1c(F)cccc1N(C)C(=O)c1ccc(-c2ccc(OS(N)(=O)=O)cc2)o1

>  <Unit Abbrev>
min

>  <Observed>
21

$$$$
>  <Substance Smiles>
Cc1ccccc1N(C)C(=O)c1ccc(-c2ccc(OS(N)(=O)=O)cc2Cl)o1

>  <Unit Abbrev>
min

>  <Observed>
39

$$$$
>  <Substance Smiles>
Cc1ccccc1N(C)C(=O)c1coc(-c2ccc(OS(N)(=O)=O)cc2)n1

>  <Unit Abbrev>
min

>  <Observed>
180

$$$$
